Target: hCA VI (Homo sapiens, UniProt P23280)
Sequence (P23280 18-308): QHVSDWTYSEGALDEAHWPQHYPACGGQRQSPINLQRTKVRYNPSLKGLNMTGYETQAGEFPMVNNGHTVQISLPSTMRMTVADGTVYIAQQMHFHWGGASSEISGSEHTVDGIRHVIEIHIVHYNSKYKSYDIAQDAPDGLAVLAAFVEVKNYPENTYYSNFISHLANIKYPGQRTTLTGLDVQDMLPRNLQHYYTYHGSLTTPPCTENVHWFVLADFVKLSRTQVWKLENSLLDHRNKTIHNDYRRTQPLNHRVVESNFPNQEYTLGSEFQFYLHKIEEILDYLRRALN
pKi: −log10 of the molar value.

- MOLECULE: "Cc1cn([C@H]2C[C@H](N=[N+]=[N-])[C@@H](CO)O2)c(=O)[nH]c1=O [AZT, azidothymidine, reference compound]"
  MEASURED_TARGET: "hCA VI (Homo sapiens, UniProt P23280)"
  pKi: 6.30
- MOLECULE: "C#Cc1cccc(Nc2ncnc3cc(OCCOC)c(OCCOC)cc23)c1"
  MEASURED_TARGET: "hCA VI (Homo sapiens, UniProt P23280)"
  pKi: 6.34

----------
Biological target: UniProt Q16790
Test: stopped-flow CO2 hydration assay, hCA IX
Type: biochemical
Conditions: ratio of KI hCA II to KI hCA IX

- COMPOUND: "COCCOc1cc2ncnc(Nc3cccc(-c4cn(CCOCCOCCOCCOCCOCCNC(=O)NCc5ccc(S(N)(=O)=O)cc5)nn4)c3)c2cc1OCCOC [compound 12c]"
  MEASURED_TARGET: "UniProt Q16790"
  SI II/IX: 0.002
- COMPOUND: "COCCOc1cc2ncnc(Nc3cccc(-c4cn(CCOCCOCCOCCOCCOCCC(=O)NCc5ccc(S(N)(=O)=O)cc5)nn4)c3)c2cc1OCCOC [compound 10a]"
  MEASURED_TARGET: "UniProt Q16790"
  SI II/IX: 0.06
- COMPOUND: "COCCOc1cc2ncnc(Nc3cccc(-c4cn(CCOCCOCCOCCNC(=S)Nc5ccc(S(N)(=O)=O)c(C)c5Br)nn4)c3)c2cc1OCCOC"
  MEASURED_TARGET: "UniProt Q16790"
  SI II/IX: 0.39

Reference for the values: paper PMC12243159
